assay.system: hNav1.7 (Homo sapiens, UniProt Q15858)
Construct: expressed in transfected cells
Sequence (Q15858 1-1977 isoform Q15858-3): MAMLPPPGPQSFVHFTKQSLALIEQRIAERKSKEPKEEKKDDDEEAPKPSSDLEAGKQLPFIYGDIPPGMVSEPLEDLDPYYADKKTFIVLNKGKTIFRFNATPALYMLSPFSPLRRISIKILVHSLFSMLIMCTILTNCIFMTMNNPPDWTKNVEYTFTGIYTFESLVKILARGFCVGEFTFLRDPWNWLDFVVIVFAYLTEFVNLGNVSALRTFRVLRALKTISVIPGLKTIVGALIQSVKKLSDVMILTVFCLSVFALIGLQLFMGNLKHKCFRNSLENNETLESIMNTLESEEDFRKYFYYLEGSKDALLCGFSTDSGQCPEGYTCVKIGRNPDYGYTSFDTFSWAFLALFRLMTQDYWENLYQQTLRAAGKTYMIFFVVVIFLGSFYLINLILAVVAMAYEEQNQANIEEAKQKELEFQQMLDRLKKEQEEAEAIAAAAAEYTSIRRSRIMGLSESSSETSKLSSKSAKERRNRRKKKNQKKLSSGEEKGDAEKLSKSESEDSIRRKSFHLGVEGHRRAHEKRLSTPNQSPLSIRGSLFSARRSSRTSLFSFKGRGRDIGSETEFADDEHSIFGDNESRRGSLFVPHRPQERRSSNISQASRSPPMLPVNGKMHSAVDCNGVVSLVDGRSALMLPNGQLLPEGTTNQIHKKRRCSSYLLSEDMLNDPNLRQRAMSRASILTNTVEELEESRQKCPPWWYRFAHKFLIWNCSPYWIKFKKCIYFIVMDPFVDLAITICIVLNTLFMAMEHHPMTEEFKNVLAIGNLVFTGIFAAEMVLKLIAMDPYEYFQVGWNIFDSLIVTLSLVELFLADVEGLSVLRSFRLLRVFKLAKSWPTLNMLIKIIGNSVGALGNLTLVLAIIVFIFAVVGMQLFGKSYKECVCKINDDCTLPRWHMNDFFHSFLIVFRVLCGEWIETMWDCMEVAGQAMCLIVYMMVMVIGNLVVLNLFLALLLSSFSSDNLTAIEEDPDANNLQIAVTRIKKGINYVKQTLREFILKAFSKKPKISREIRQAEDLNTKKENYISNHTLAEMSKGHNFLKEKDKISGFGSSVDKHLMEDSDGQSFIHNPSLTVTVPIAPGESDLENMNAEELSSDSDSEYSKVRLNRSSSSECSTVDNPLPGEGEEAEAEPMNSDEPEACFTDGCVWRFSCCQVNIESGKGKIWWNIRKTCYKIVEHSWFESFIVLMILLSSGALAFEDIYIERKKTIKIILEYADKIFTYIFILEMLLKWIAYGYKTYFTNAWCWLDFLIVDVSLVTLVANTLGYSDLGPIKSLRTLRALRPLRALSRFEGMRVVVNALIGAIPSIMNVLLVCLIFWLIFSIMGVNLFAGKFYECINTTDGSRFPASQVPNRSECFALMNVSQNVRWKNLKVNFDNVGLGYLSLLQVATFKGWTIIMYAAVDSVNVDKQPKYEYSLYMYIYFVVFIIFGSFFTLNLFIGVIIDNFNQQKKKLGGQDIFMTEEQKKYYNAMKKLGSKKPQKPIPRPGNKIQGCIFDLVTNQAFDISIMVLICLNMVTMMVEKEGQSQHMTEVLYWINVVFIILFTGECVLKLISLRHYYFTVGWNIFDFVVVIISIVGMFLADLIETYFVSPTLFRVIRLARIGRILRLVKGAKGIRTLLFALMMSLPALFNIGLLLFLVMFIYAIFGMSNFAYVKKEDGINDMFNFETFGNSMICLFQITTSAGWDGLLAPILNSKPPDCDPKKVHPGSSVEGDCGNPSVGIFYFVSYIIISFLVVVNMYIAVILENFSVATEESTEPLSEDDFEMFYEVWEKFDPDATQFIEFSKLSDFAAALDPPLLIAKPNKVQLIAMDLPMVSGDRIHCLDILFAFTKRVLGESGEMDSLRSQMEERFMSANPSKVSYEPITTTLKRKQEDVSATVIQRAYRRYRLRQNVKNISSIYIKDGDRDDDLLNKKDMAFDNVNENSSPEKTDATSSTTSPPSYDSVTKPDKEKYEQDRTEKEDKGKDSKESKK
Sequence (Q07699 19-218 partner): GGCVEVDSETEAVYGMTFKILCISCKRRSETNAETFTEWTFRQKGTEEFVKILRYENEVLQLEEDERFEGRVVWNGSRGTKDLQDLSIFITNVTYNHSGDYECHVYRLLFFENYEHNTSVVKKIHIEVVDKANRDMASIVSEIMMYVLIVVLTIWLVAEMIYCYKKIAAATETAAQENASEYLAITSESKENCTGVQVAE
method.notes: Tritiated compound binding (LBA) to membranes from cells expressing hNav1.7 and the β1 subunit, competitive binding
measurement.setup: competitive binding vs 100 pM [3H]compound, 18 h, room temperature, membranes with hNav1.7 and β1 subunit
metric: IC50 (nM)
Write the value in nM as a bare number.

1. O=C(O)[C@@H]1C[C@@H](F)CN1C(=O)c1cc(C2CC2)c(OCC2CCN(Cc3cc(C(F)(F)F)cc(C4CC4)n3)CC2)cc1F: 81

Which measured IC50 belongs to O=C(O)[C@@H]1C[C@@H](F)CN1C(=O)c1cc(C2CC2)c(OCC2(F)CCN(Cc3cc(C(F)(F)F)ccc3Cl)CC2)cc1F , tested on hNav1.7 (Homo sapiens, UniProt Q15858)? 27

Would you kindly repeat that for O=C(N[C@H](C(=O)O)C1CCC1)c1cc(C2CC2)c(OCC23CC4CC(CC(C4)C2)C3)cc1F ? 260
